Protein target, amino acids: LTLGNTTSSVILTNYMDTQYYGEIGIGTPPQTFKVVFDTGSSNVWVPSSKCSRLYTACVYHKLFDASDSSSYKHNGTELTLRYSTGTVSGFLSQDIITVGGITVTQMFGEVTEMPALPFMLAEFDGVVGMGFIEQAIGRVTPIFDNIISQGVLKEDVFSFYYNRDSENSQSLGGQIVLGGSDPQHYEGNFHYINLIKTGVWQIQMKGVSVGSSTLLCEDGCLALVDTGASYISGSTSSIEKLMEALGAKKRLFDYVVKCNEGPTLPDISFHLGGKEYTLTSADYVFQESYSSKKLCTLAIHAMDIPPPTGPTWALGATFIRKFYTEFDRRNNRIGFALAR
Readout label: IC50 (nM)

[
  {
    "Compound": "O=C(N[C@@H](CC1CCCCC1)[C@@H](O)[C@@H](O)C1CC1)C(Cc1cccnc1)c1nnc2c(CC3CC3)nc(-c3cccnc3)cn12 (single isomer, unassigned)",
    "Measured result": 17
  }
]

P. O=C(N[C@@H](CC1CCCCC1)[C@@H](O)[C@@H](O)C1CC1)C(Cc1cscn1)c1nnc2c(C3CC3)nc(-c3cccnc3)cn12 (single isomer, unassigned)
Q. C=CCC(C(=O)N[C@@H](CC1CCCCC1)[C@@H](O)[C@@H](O)C1CC1)c1nnc2c(CCC)nc(-c3cccnc3)cn12 (stereo partly drawn)
// query Hi there, can you help? I need to know whether P or Q has lower measured IC50. Lab log: write the label of the selected item as the result.
// result P
